Reference source: patent US9056840B2

Could you please report measured Luminescence activity Imax (%) for the items listed next?
Tested on: Gaussia luciferase
Experiment: Substrate specificity and luminescence activity of Gaussia luciferase
Format: biochemical
Settings: measured for 10 seconds, coelenterazine = 100
Write down the numeric answer in % and omit the unit.

Prompt line: Looking for the measured Luminescence activity Imax (%) of `O=c1c(Cc2ccc(O)cc2)nc2c(-c3ccc(O)cc3)[nH]c(-c3ccc(O)cc3)cn1-2` , can you help?
Response line: 0.01

Prompt line: Looking for the measured Luminescence activity Imax (%) of `O=c1c(Cc2ccc(O)cc2)nc2c(-c3cccs3)[nH]c(-c3ccc(O)cc3)cn1-2` , can you help?
Response line: 0.00

Prompt line: Looking for the measured Luminescence activity Imax (%) of `O=c1c(Cc2ccc(O)cc2)nc2c(/C=C/c3ccccc3)[nH]c(-c3ccc(O)cc3)cn1-2` , can you help?
Response line: 0.01

Prompt line: Looking for the measured Luminescence activity Imax (%) of `O=c1c(Cc2ccc(O)cc2)nc2c(-c3ccc4ccccc4c3)[nH]c(-c3ccc(O)cc3)cn1-2` , can you help?
Response line: 0.00

Prompt line: Looking for the measured Luminescence activity Imax (%) of `O=c1c(Cc2ccc(O)cc2)nc2c(-c3csc4ccccc34)[nH]c(-c3ccc(O)cc3)cn1-2` , can you help?
Response line: 0.00

Prompt line: Looking for the measured Luminescence activity Imax (%) of `O=c1c(Cc2ccc(O)cc2)nc2c(-c3ccccc3)[nH]c(-c3ccc(O)cc3)cn1-2` , can you help?
Response line: 0.00

Prompt line: Looking for the measured Luminescence activity Imax (%) of `Oc1ccc(Cc2nc3c(Cc4ccccc4)nc(-c4ccc(O)cc4)cn3c2O)cc1` , can you help?
Response line: 100.0

Prompt line: Looking for the measured Luminescence activity Imax (%) of `O=c1c(Cc2ccc(O)cc2)nc2c(-c3ccsc3)[nH]c(-c3ccc(O)cc3)cn1-2` , can you help?
Response line: 0.00

Prompt line: Looking for the measured Luminescence activity Imax (%) of `O=c1c(Cc2ccc(O)cc2)nc2c(-c3cccc4ccccc34)[nH]c(-c3ccc(O)cc3)cn1-2` , can you help?
Response line: 0.00

Prompt line: Looking for the measured Luminescence activity Imax (%) of `O=c1c(Cc2ccc(O)cc2)nc2c(-c3cc4ccccc4s3)[nH]c(-c3ccc(O)cc3)cn1-2` , can you help?
Response line: 0.00

====

Could you please report measured Semi-synthetic gFP (EDTA-containing buffer) Fluorescence intensity (rlu) for the items listed next?
Molecular target: apoaequorin (Aequorea victoria, UniProt P07164)
Construct: purchased Chisso Corporation
Sequence (P07164 other isoform, or with tags, fused parts or gaps with the stated changes): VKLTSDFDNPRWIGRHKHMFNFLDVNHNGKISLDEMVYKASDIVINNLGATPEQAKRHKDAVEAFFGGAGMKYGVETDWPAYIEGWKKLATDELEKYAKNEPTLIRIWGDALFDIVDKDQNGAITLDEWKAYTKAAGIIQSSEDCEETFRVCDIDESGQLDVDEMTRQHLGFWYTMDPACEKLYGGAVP
Test: Fluorescence spectra of semi-synthetic gFP (coelenteramide analogue + apoaequorin, EDTA)
Assay type: physicochemical
Settings: 10 mM EDTA buffer, excitation 337 nm
Write down the numeric answer in rlu and omit the unit.

Prompt line: Looking for the measured Semi-synthetic gFP (EDTA-containing buffer) Fluorescence intensity (rlu) of `O=C(Nc1ncc(-c2ccc(O)cc2)nc1Cc1ccccc1)c1cccc(O)c1` , can you help?
Response line: 44.8

Prompt line: Looking for the measured Semi-synthetic gFP (EDTA-containing buffer) Fluorescence intensity (rlu) of `O=C(Cc1ccc(O)cc1)Nc1ncc(-c2ccc(O)cc2)nc1-c1cc2sccc2s1` , can you help?
Response line: 139.9

Prompt line: Looking for the measured Semi-synthetic gFP (EDTA-containing buffer) Fluorescence intensity (rlu) of `O=C(Cc1ccc(O)cc1)Nc1ncc(-c2ccc(O)cc2)nc1C#Cc1ccccc1` , can you help?
Response line: 21.1

Prompt line: Looking for the measured Semi-synthetic gFP (EDTA-containing buffer) Fluorescence intensity (rlu) of `O=C(Cc1ccc(O)cc1)Nc1ncc(-c2ccc(O)cc2)nc1/C=C/c1ccccc1` , can you help?
Response line: 43.2

Prompt line: Looking for the measured Semi-synthetic gFP (EDTA-containing buffer) Fluorescence intensity (rlu) of `O=C(Cc1ccc(O)cc1)Nc1ncc(-c2ccc(O)cc2)nc1-c1ccc([N+](=O)[O-])cc1` , can you help?
Response line: 3.4

Prompt line: Looking for the measured Semi-synthetic gFP (EDTA-containing buffer) Fluorescence intensity (rlu) of `O=C(Cc1ccc(O)cc1)Nc1ncc(-c2ccc(O)cc2)nc1-c1ccc2ccccc2c1` , can you help?
Response line: 72.6

Prompt line: Looking for the measured Semi-synthetic gFP (EDTA-containing buffer) Fluorescence intensity (rlu) of `C=C(c1ccccc1)c1nc(-c2ccc(O)cc2)cnc1NC(=O)Cc1ccc(O)cc1` , can you help?
Response line: 32.1
